- system.tested: human Gal-3 (hGal-3) (Homo sapiens (Human), UniProt P17931)
- Sequence (P17931 whole entry): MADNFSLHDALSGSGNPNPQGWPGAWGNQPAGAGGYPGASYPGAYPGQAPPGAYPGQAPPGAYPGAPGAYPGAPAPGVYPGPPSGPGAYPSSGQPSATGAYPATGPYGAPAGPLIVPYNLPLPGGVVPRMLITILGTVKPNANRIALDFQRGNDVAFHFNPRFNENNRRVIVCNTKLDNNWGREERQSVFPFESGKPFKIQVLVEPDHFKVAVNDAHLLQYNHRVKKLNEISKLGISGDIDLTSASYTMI
pIC50: −log10 of the molar value.
measurement.label: pIC50

compound="CO[C@@H]1[C@@H](n2cc(-c3cc(F)c(F)c(F)c3)nn2)[C@@H](O)[C@@H](CO)O[C@@H]1Cc1cc(C2CCN(S(=O)(=O)N3CCOCC3)CC2)on1 [Example 3.62]" system_tested="human Gal-3 (hGal-3) (Homo sapiens (Human), UniProt P17931)" measurement_label=pIC50 endpoint_value=7.35

(a) COCC(C)(C)c1cc(C[C@H]2O[C@H](CO)[C@H](O)[C@H](n3cc(-c4ccc(C)c(F)c4F)nn3)[C@H]2OC)on1 [Ex 1.330]
(b) CC(=O)N1CCC(C2CC(C[C@H]3O[C@H](CO)[C@H](O)[C@H](n4cc(-c5cc(F)c(F)c(F)c5)nn4)[C@H]3O)=NO2)CC1 (mixture of isomers) [Example 3.18]
Q: Between a and b , which one has the lower reported pIC50 value? Please reply using the label of the selected record.
Ans: b
(b: 6.74, a: 7.21)
